Where these numbers come from: patent US20250051443A1

target: T1, human CD3 (human, UniProt P07766 23-207; P09693 23-182; P04234 22-171); experiment: flow competition on Jurkat, 100 nM unlabeled mAb; competitor AF488-SP34.2 20 nM
T1 construct: whole, on cells; also called CD3 on Jurkat T cells; CD3 on primary human T cells
observed property: % residual fluorescence of labeled mAb (%)
The reply should contain only the number, in %.

For the binder F332-10B6 (antibody, mouse IgG2a, V domains shown, also called F332-10B6-2; F332-12B5-1) VH: QVQLQQPGAELGKPGTSVNLSCKASGYTFTDYWIHWVKQRPGQGLEWIGNINPNSGDTNYNENFKTKATLTVDRSSSTAYMQLSSLTSEDSAVYYCTRDISGQYYFDFWGQGTTLTVSS VL: DIVMSQSPSSLAVSAGEKVTMSCKSSQSLLNSRTRKNYLAWYQQKPGQSPKLLIYWASTRESGVPDRFTGSGSGTDFTLTISSVQAEDLAVYYCIQSYNLRTFGGGTKLEIK , what % residual fluorescence of labeled mAb is on record? 32

Any idea what % residual fluorescence of labeled mAb was measured for F332-7B7 (antibody, mouse IgG2a, V domains shown, also called F332-7B7-2) VH: QVQLQQPGTELGKPGTSVKLSCKASGYTFTNYWMHWVKQRPGQGLEWIGNINPNSGSTNYNQKFKSKATLTLDKSSSTAYMQFSTLTSEDSAVYYCTRDSSGQYYFDYWGQGTTLTVSS VL: DIVMSQSPSSLAVSAGEKVTMSCKSSQSLLNSRTRKNYLAWYQQKPGQSPKLLIYWASTRESGVPDRFTGSGSGTDFTLTISSVQAEDLAVYYCIQSFHLRTFGGGTKLEIK ? 9
